# System: Mus musculus
# assay: Neurotoxicity in ip dosed mouse assessed as minimum effective dose required to induce motor impairment measured after 4 hrs by Rotarod test
# Format: toxicity, organism-based
# conditionNotes: in vivo
endpointName: MED

These recorded examples may help you get a feel for the data.
compound: Cc1cccn2c(C3C=C(c4ccc(F)cc4)NC(=S)N3)c(-c3ccccc3)nc12 (centres undefined)
assaySystem: Mus musculus
recordedResult: Non-toxic
--
compound: COc1nc(-c2ccc(C)cc2)cc(-c2c(-c3ccccc3)nc3c(C)cccn23)c1C#N
assaySystem: Mus musculus
recordedResult: Non-toxic
--
compound: COc1nc(-c2ccc(C)cc2)cc(-c2c(-c3ccc(F)cc3)nc3c(C)cccn23)c1C#N
assaySystem: Mus musculus
recordedResult: Non-toxic
--
compound: Cc1cccn2c(C3C=C(c4ccccc4)NC(=S)N3)c(-c3ccc(F)cc3)nc12 (centres undefined)
assaySystem: Mus musculus
recordedResult: Non-toxic

For every item below, please supply its MED.
1. Cc1cccn2c(-c3cc(-c4ccc([N+](=O)[O-])cc4)[nH]c(=O)c3C#N)c(-c3ccc(F)cc3)nc12
2. Cc1ccc(C2=CC(c3c(-c4ccccc4)nc4c(C)cccn34)NC(=S)N2)cc1 (centres undefined)
3. Cc1ccc(-c2cc(-c3c(-c4ccc(F)cc4)nc4c(C)cccn34)nc(N)n2)cc1
4. COc1nc(-c2ccc([N+](=O)[O-])cc2)cc(-c2c(-c3ccccc3)nc3c(C)cccn23)c1C#N
5. Cc1cccn2c(C3CC(c4ccccc4)=NN3)c(-c3ccc(F)cc3)nc12 (centres undefined)

["100 mg/kg", "Non-toxic", "Non-toxic", "Non-toxic", "Non-toxic"]
